Tested on: HCT-116
assay_info: NCI tumour cell line growth inhibition, 48 h
Calls of active or inactive are those of the source. No stated cut-off is given here; in the data, active = GI50 up to about 1.1 µM and inactive = higher.
Could you please report measured GI50 for the items listed next?

Request: Returns the measured GI50 for the input molecule. Input: CC(C)(C)OC(=O)NC1CCCC1C(O)(C1=CCCC1)C1=CCCC1 (stereo not given)
Result: > 100 µM (inactive)

Request: Another molecule to check: `O=C1c2ccccc2-c2c1c1ccccc1c(=O)n2-c1ccccc1`
Result: 4.17 µM (inactive)

Request: Same read-out for c1ccc(C2C3=C(CCCC3)Nc3nc4cc5ccccc5cc4n32)cc1 (stereo not given) ?
Result: > 100 µM (inactive)

Request: Another molecule to check: `COc1ccc(S(=O)(=O)N/N=C(\C)CN2C(=O)c3ccccc3C2=O)cc1`
Result: > 100 µM (inactive)

Request: Same question for N#CC1(C#N)C2=C(CCCC2)NC(c2ccc(Br)cc2)C1(C#N)C#N (stereo not given) please.
Result: 1.84 µM (inactive)

====

System: A498
assay_info: NCI tumour cell line growth inhibition, 48 h
Activity calls are given as the source filed them. Cut-off read from the data, not from the text of the source: active = GI50 up to about 1.1 µM and inactive = higher.
Could you please report measured GI50 for the items listed next?

Request: # returns recorded GI50 (system: A498) for `Nc1ccc2c(c1)S(=O)(=O)c1cc(O)ccc1O2`
Result: 31.2 µM (inactive)

Request: `c1ccc(/C(=N\Nc2nc3ccccc3[nH]2)c2ccccn2)cc1`
Result: 0.916 µM (active)

Request: Then CC1(C)[C@@H]2C[C@H]1c1cnc(-c3ccccn3)cc1C2[C@@H]1c2cc(-c3ccccn3)ncc2[C@@H]2C[C@H]1C2(C)C (stereo not given in full) ?
Result: 39.9 µM (inactive)

Request: Further, for COC(=O)c1ccccc1CC1Cc2cc3c(cc2C1=O)CCC3 (stereo not given) ?
Result: 11.7 µM (inactive)

Request: Entry COc1ccc(C2(CC(C)O)SCCCS2)cc1 (stereo not given) please
Result: > 100 µM (inactive)

====

Tested on: LOX IMVI
assay_info: NCI tumour cell line growth inhibition, 48 h
Active and inactive are the calls of the source. Rule as the data show it: active = GI50 up to about 1.1 µM and inactive = higher.
A correct response names exactly one class from active, inactive

Request: Each molecule tested received a call. Report the one for `COc1ccc(-n2/c(=N/C(=S)N(C)C)ss/c2=N\C(=S)N(C)C)cc1` .
Result: inactive

Request: How about this molecule: `O=C(c1ccccc1)[C@H]1Nc2ccc(Cl)cc2[C@H]2OCCC[C@@H]12`
Result: inactive

Request: Can you handle CC1(C)C2CCC1(CS(=O)(=O)Nc1ccccc1)C(=O)C2 (stereo unspecified) next?
Result: inactive

Request: Same lookup for C=C1C(O)CC[C@]2(C)C1C1OC(C)(C)O[C@]13CC(=O)C(C)=C([C@H]1OC(C)(C)OC12)C3(C)C (stereo partly specified) , please.
Result: inactive

Request: Now give it for `CS(=O)(=O)c1nc(-c2cc3c(c(S(C)(=O)=O)n2)CCC3)cc2c1CCCCC2` too.
Result: inactive

Request: Next molecule up: `O=C(O)CCc1nc2cc3ccccc3cc2[nH]c1=O`
Result: inactive

Request: # iterate: `Cc1nc2ccc(NCCN(C)C)c3c(=O)c4ccccc4n1c23`
Result: active

Request: Note, next up: `CC1=C(C(=O)NCc2ccccc2)C(c2ccccc2[N+](=O)[O-])C(C(=O)NCc2ccccc2)=C(C)N1`
Result: inactive

Request: Record: `CC1(n2nc(-c3ccccc3)n(-c3ccccc3)c2=O)CSC1`
Result: inactive

Request: Param item: `CN(C)c1ccc(/C=C2\N=C(c3ccccc3)N(c3nc4ccc(Sc5ccccc5)cc4[nH]3)C2=O)cc1`
Result: inactive

Request: Please answer likewise for CC(=O)Nc1cc(/C=C\C(=O)N2CC(CCl)c3c2cc(N)c2ccccc32)n(C)n1 (stereo unspecified)
Result: active

Request: Input `Cn1c2ccccc2c(=O)c2ccc(Cl)cc21`
Result: inactive

Request: Next up: `Cn1c(=O)c2nc3sc4ccccc4c(=N)n3c2n(C)c1=O`
Result: inactive

Request: Now give it for O=C(c1ccc(O)cc1O)C1C(c2ccc(O)cc2)OC(c2ccc(O)cc2)C1C(=O)c1ccc(O)cc1O (stereo unspecified) too.
Result: inactive

Request: Can you check `N#CCCN(CCCN(C(=O)Nc1ccccc1)c1ccccc1)C(=O)Nc1ccccc1` next?
Result: inactive

Request: And then `CCNc1nc2ccccc2nc1NCC` , what is it?
Result: inactive

Request: And `CCOC(=O)c1ccc(C(=O)/C(C#N)=C2\CCCN2)[nH]1` ?
Result: inactive

Request: Now give it for `Nc1ccc2c(c1)S(=O)(=O)c1cc(O)ccc1O2` too.
Result: inactive

Request: Same lookup for CC#CCC1CCC(OCC)=CC1=O (stereo unspecified) , please.
Result: inactive

Request: Same lookup for `CN1CN(c2ccccc2)C2(CCN(CCCCCCF)CC2)C1=O` , please.
Result: inactive

Request: Okay, and CCCCCCCCCCCCCCCCOCC(COP(=O)(O)OCC1OC(n2cc(CC)c(=O)[nH]c2=O)CC1O)OC(=O)CCCCCCCCCCCCCCC (stereo unspecified) ?
Result: inactive
